B1: KLHDC10 (parent)
chain: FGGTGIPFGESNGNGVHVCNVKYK

# Variants of: B1
# measurement_notes: protein stability index of a GFP-peptide fusion (GPS, HEK-293T) (PSI 1-6); higher = more stable;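 note: lentivirally expressed fusions sorted by FACS into six bins by GFP to DsRed ratio, PSI derived from sequencing read proportions per bin multiplied by bin number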
# condition_parameters: c terminus: a fixed tail appended
Label MET when protein stability index is at or above 2; anything below gets NOT MET.

Lookup: I'd appreciate it if you could say whether `V18A` has protein stability index at least equal to 2.
Found: MET

Lookup: Check this variant for protein stability index at or above 2: `G15N`
Found: NOT MET

Lookup: Can `G3S` be said to have protein stability index at or above 2?
Found: MET

Lookup: Is protein stability index for `G13P` at or above 2?
Found: NOT MET

Lookup: Is the recorded value of protein stability index equal to or greater than 2 for this variant? `V21E`
Found: MET

Lookup: Test whether the variant `H17I` records protein stability index of 2 or higher.
Found: NOT MET

Lookup: Identify whether the reported protein stability index of the following variant is 2 or greater: `G3E`
Found: MET

Lookup: In plain terms: is recorded protein stability index at least 2 for `G3F` ?
Found: MET

Lookup: Assess whether reported protein stability index for `V18Y` sits at 2 or higher.
Found: MET

Lookup: Evaluate `P7T` : protein stability index at minimum 2?
Found: MET

Lookup: API: above_or_equal(metric=protein stability index, cutoff=2) for item `V18G`
Found: MET

Lookup: Assess whether reported protein stability index for `N20G` sits at 2 or higher.
Found: NOT MET

Lookup: Is protein stability index for `F1S` at or above 2?
Found: MET

Lookup: Quick check: does `G3C` have protein stability index greater than or equal to 2?
Found: MET

Lookup: Answer whether protein stability index of `P7V` is greater than or equal to 2.
Found: MET

Lookup: I'd appreciate it if you could say whether `N12H` has protein stability index at least equal to 2.
Found: MET

Lookup: API: above_or_equal(metric=protein stability index, cutoff=2) for item `T4F`
Found: MET

Lookup: I'd appreciate it if you could say whether `G13S` has protein stability index at least equal to 2.
Found: NOT MET

Lookup: Is the recorded value of protein stability index equal to or greater than 2 for this variant? `N12M`
Found: NOT MET
